# method description: Intrinsic clearance (CLint) in cynomolgus monkey liver microsomes
# Format: in vitro ADME
# condition context: monkey, liver microsomes, pH 7.4, monkey liver microsomes, individual substrates, 1 μM; read-out: T½
Catalogue of half-life at 1 μM readings, one per entry.
Provide only the numeric value, understood in min.

compound: [2H]C([2H])([2H])c1cnc(Cc2nc3cnc4ccc(Cl)cc4c3n2[C@@H]2CCO[C@H](C)C2)cn1
half-life at 1 μM, min: 21.9

Shift focus to the following entry.
Req: Entry Cc1cnc(Cc2nc3cnc4ccc(Cl)cc4c3n2[C@@H]2CCO[C@H](C)C2)cn1 [Example 95A] : reported half-life at 1 μM = ?
Resp: 15.3
